Tested on: human hepatocytes
Assay: Metabolic stability in human hepatocytes
Settings: 1 μM test compound, 50% human serum, percentage of liver blood flow
measuredParameter: Hepatic clearance - QH[%] in human hepatocytes (%)
Numbers only, in %.

>  <compound>
C[C@@H](NC(=O)c1cc([C@H]2CC[C@H](N3CCC[C@@H](O)C3)CC2)c2ncnn2c1)c1cccc(C(F)F)c1F

>  <readoutUnit>
%

>  <testResult>
15

$$$$
>  <compound>
C[C@@H](NC(=O)c1cc(N2CCC(N3CC[C@@H](O)C3)CC2)c2ncnn2c1)c1cccc(C(F)F)c1F [Example E2]

>  <readoutUnit>
%

>  <testResult>
15

$$$$
>  <compound>
C[C@@H](NC(=O)c1cc(N2CCC(N3CCCC(O)CC3)CC2)c2ncnn2c1)c1cccc(C(F)(F)F)c1F (single isomer, unassigned) [Example E43a]

>  <readoutUnit>
%

>  <testResult>
25

$$$$
>  <compound>
C[C@@H](NC(=O)c1cc([C@]2(O)CC[C@@H](N3CC[C@H](F)C3)CC2)c2ncnn2c1)c1cccc(C(F)F)c1F

>  <readoutUnit>
%

>  <testResult>
32

$$$$
>  <compound>
C[C@@H](NC(=O)c1cc(N2CCC(N3CC[C@@](C)(O)C3)CC2)c2ncnn2c1)c1cccc(C(F)F)c1F

>  <readoutUnit>
%

>  <testResult>
16

$$$$

Proceed to the following item.
Give the measured Hepatic clearance - QH[%] in human hepatocytes of C[C@@H]1C[C@@H](O)CN1[C@H]1CC[C@H](c2cc(C(=O)N[C@H](C)c3cccc(C(F)F)c3F)cn3ncnc23)CC1 .
9

Hey, just so you know, these numbers are from patent US20250313560A1.
